# reported phosphorylation enrichment; entries follow
STUDY_SYSTEM: Fyn (UniProt P06241)
Sequence (P06241 whole entry, looked up): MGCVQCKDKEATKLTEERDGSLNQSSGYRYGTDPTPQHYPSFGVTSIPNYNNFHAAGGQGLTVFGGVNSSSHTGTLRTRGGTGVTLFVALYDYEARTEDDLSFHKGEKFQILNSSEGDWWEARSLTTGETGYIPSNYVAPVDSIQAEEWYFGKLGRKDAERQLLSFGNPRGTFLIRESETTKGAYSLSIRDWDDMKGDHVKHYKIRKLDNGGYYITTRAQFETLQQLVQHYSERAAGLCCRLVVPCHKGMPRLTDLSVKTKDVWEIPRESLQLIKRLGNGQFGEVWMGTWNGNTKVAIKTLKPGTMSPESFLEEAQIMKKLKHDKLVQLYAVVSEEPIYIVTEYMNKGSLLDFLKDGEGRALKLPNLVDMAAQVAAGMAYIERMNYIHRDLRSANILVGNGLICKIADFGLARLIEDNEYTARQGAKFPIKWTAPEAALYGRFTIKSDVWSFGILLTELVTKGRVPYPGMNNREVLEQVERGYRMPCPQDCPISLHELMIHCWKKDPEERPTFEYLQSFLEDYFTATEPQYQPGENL
METHOD: phosphorylation enrichment, bacterial display (enrichment ratio); higher = better substrate or ligand; peptides without Tyr show the background;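 note: 11-residue human phosphosite peptides and single-mutation variants displayed on the E. coli surface, counted by deep sequencing, each peptide's frequency after selection divided by its frequency in the unselected input library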;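 note: frequency after pTyr selection over input frequency; kinase dosed for 20-30% of maximal phosphorylation in three min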
Reply with the value as a number alone.

Illustrative cases are given below, each with its answer.
sequence_string="ADLLVYIKALN [HPRT1_Y81_D80V]" study_system="Fyn (UniProt P06241)" data_value=0.455
sequence_string="EYFENYIEELK [PARP4_Y218]" study_system="Fyn (UniProt P06241)" data_value=0.539
sequence_string="SVAVPYEPPEV [TP53_Y220_V217A]" study_system="Fyn (UniProt P06241)" data_value=0.486
sequence_string="LSAPWYLNRIS [HEXA_Y421]" study_system="Fyn (UniProt P06241)" data_value=0.371
sequence_string="PSQRRYVYYYS [PTEN_Y174]" study_system="Fyn (UniProt P06241)" data_value=0.648

Value of phosphorylation enrichment reported for the sequence RSHLSYDVTPE [IQGAP3_Y1098_P1097S] is 0.509

Sample SWDKRYCEAGC [ITGA2B_Y197_F202C] ; phosphorylation enrichment observed: 0.454

The recorded phosphorylation enrichment for entry PLGPLYASSNP [INSR_Y992] equals 1.27

Entry KLSFSYGRALQ [ALDOB_Y302] , phosphorylation enrichment reported as 0.388

So for SSVPDYLAAVD [GLB1_Y154_D151V] , the logged phosphorylation enrichment turned out to be 0.582

// AHPGEYGAEAL [HBA1_Y25_A22P] : phosphorylation enrichment value = 0.488

Query SHKELYKWFTS [DYNC1H1_Y3051_E3048K] yields phosphorylation enrichment of 0.513

Per the records, this sequence ( LDPIQYSKHPP [SQSTM1_Y433_T430P] ) has phosphorylation enrichment equal to 0.472

phosphorylation enrichment measured on LTDLRYKVSGP = 0.537

// sample NREGVYRVFAP [TGFBI_Y537_T538R] , its phosphorylation enrichment was 4.68

Entry QMRLKYSQSDL [SMC1A_Y714] ; phosphorylation enrichment = 0.251

For record IVTLKYPIEHG [ACTB_Y69_L65V] the listed phosphorylation enrichment is 0.483

phosphorylation enrichment measured on VICRRYLVMQR [IL3RA_Y328] = 0.595

Sure, the documented phosphorylation enrichment for YCRIMYDIFPF [INTS13_Y67] is 2.55

For DKGTLYIAEQI [PLBD1_Y375_V377A] the sequence record lists phosphorylation enrichment as 0.459

GET /value?item= KNSFKYYMSDD [ATRX_Y203_C200S] &field=phosphorylation enrichment returns 0.468

The reported phosphorylation enrichment of the sequence LEDEVCAQKMK [TPM2_Y261_Y261C] was 1.01

Value of measured phosphorylation enrichment for the entry IKIMGYFIRTI [IDS_Y490_S491F] : 0.402

Entry FTYDPYSEEEP [IL2RB_Y387_D391E] — recorded phosphorylation enrichment = 1.14

Reported phosphorylation enrichment of AAPAAHDAADT [GAMT_Y27_Y27H] : 0.45
